System: NCI-H522 lung
Assay: NCI-60 one-dose screen, 48 h
Details: 10 µM unless noted
Protocol: Growth inhibition of the NCI-H522 human Non-Small Cell Lung tumor cell line is measured as a screen for anti-cancer activity. Cells are grown in 96 well plates and exposed to the test compound for 48 hours. Compounds are tested at a single concentration, which is 10^-5 M for most compounds. The reported endpoint is percent growth (GI% or GIPRCNT), where numbers from 0 - 100% represent growth inhibition, and numbers from -100% - 0 represent cell death. […]
About 83,000 compounds went through this panel and 20% of them were active in at least one assay; those are over-represented in the sample as a whole. Calls of active or inactive are those of the source. The calls were made as follows: active = growth percent below 10; inactive = the rest.
Please reply with one of these outcomes: active, inactive

# example entries with known answers
CS(=O)(=O)c1ccc(-c2nn(-c3ccccc3)cc2/C=N/NC(=O)c2ccncc2)cc1	inactive
Cc1ccc(-c2cc3nc(C(Cl)Cl)nc(-c4ccccc4)n3n2)cc1	inactive
CN1CCN(c2ccc(C(=O)/C=C/c3ccc(Cl)c(C(F)(F)F)c3)cc2)CC1	inactive
CCNCCCn1c2c(c3cc(OC)c(OC)cc3c1=O)C(=O)c1cc(OC)cnc1-2	inactive

Then this compound:
### Prompt Look up the recorded call for CCN1C(=O)N(CC)C2SC(N/N=C/c3ccccc3)=NC21 (stereo not given) in this test.
### Response active

Data origin: PubChem BioAssay (NCI)
